Test system: L-amino acid oxidase
Type: biochemical, snake venom
measurement parameters: substrate of L-amino acid oxidase, pH 7.5, 37° C.
Give 1 (yes) when the value for Vmax is at least 30 µmol/min/mg. Give 0 (no) when it is less.

compound | assigned label
N[C@@H](Cc1c[nH]c2ccccc12)C(=O)O [L-Tryptophan] | 1 (yes)
CC(C)[C@H](N)C(=O)O [L-Valine] | 0 (no)
N[C@@H](Cc1ccccc1)C(=O)O [L-Phenylalanine] | 1 (yes)
C[C@H](N)C(=O)O [L-Alanine] | 0 (no)
N[C@@H](Cc1ccc(O)cc1)C(=O)O [L-Tyrosine] | 1 (yes)
N[C@@H](Cc1ccc(N(CCCl)CCCl)cc1)C(=O)O [Melphalan] | 0 (no)
CSCC[C@H](N)C(=O)O [L-Methionine] | 1 (yes)
CC(C)C[C@H](N)C(=O)O [L-Leucine] | 1 (yes)
CC[C@H](C)[C@H](N)C(=O)O [L-Isoleucine] | 1 (yes)

Measured values drawn from patent US5695751A for this set.
